Assay: yeast display, Sf9 membrane polyspecificity reagent, FACS + sequencing; frameworks hold sequencing errors
ATTRIBUTE_MEASURED: polyreactivity (PSR sort gate)

{"columns": ["SEQUENCE", "polyreactivity (PSR sort gate)"],
 "data": [
  ["QVQLVESGGGLVQAGGSLRLSCAASGFIIARNTMGWYRQAPAKERELVAAISSSGGSTYYADSVKGRFTISRDNAKNTFYLQMNCLKPEDTAVYYCNKGYTGLYGYDYWGQGTHVTVSS", "high polyreactivity"],
  ["QVQLVESGGGLVQAGGSLRLSCAASGRTFGKNAMGWYRQAPGKEREFVAAITSRGGSTYYADSVKGRFTISRDNAKNTVYLQMNSLKAEDTAVYYCNREYIRPSQRTEHYYWGQGTQVTVSS", "low polyreactivity"],
  ["QVQLVESGGGLVQAGGSLRLSCAASGIIFGTNAMGWYRQAPGKERELVAYITSGGSTYADSVKGRFTISRDNAKNTFYLQMHSLKPEDTEVYYCAAYVFWAFYEYDYWGQGTQVTVSS", "low polyreactivity"],
  ["QVQLVESGGGLVQAGGSLRLSCAASGSTFPTNAMGWYRQAPGKERELVAAISQRGDSTSYADSVKGRFTISRDNAKNTVYLQMNSLKPEDTAVYFCAVDAYSYYDSTWFWYDYWGQGTQVTVSS", "high polyreactivity"]
]}

Let's switch to this sequence now.
// polyreactivity (PSR sort gate) value for QVQLVESGGGLVQAGGSLRLSCAASGRIFNYYAMGWSRQAPGKERELVAAIRTGGSTYYADSVKGRFTISRDNAKNTVYLQMNSLKPEDTAVYYCARLVYYSSPYGYWGQGTQVTVSS : high polyreactivity

----------
Test: yeast display, Sf9 membrane polyspecificity reagent, FACS + sequencing; frameworks hold sequencing errors
ATTRIBUTE_MEASURED: polyreactivity (PSR sort gate)

Consider the worked cases shown below.
{"columns": ["SEQUENCE", "polyreactivity (PSR sort gate)"],
 "data": [
  ["QVQLVESGGGLVQAGGSLRLSCAASGRTFSGYVMGWYRQAPGKERELVATINGSGASTYYADSVKGRFTISRDNAKNTVYLQMNSLKPEDTAVYYCNKYPAHYQTRRYDYWGQGTQVTVSS", "high polyreactivity"],
  ["QVQLVESGGGLDQAGGSLRLSCAASGRTFAVYAMGWYIQAPGKERELVASIRLSGTRTYYADSVKGRFTISRDHAKNTVYFQMNSLKPEDTAVYYCAAKGTYSRGTFNGYRYDYWGQGTQVTVSS", "high polyreactivity"],
  ["QVQLVESGGGLVQAGGTLRLSCAPSGSTFYANTMGWYRPAPGKERELVATISWTGSSTYYADSVKGRFTISRDNAKNTVYLQMNSLNPEDTAVYYCNKRYYYRRNYWGQGTQVTVSS", "high polyreactivity"],
  ["QVQLVESGGGLVQAGGSLRLSCAASGGTFVYYAMGWYRQAPGKERELVAAINWSGGSTYYADSVKGRFTISRDNAKNTVYLQMNSLKPEDTAVLLLQRSGLRRSGVWFDYWGQGTQVTVSS", "low polyreactivity"]
]}

// polyreactivity (PSR sort gate) value for QVQLVESGGGLVQAGGSLRLICAASGYTFPDYAMGWYRPAPGTERELVAAIRSGGGTNYADSVKGRFTISRDNAKNSVYLQMNSMKPEDTAVFYCAKEWAGGLYDYWGQGTQVTVSS : low polyreactivity

// polyreactivity (PSR sort gate) value for QVQLVESGGGLVQAGGSLRLSCAASGSTFLYNTMGWYRPAPGKERELVAAITSAGSTNYADSVKGRFTISRDNAKNTVYLQMNSLKPEDTAVYYCAAVGPTSGARYTYDYWGQGTQVTVSS : low polyreactivity
